System: Salmonella Typhimurium ATCC 13311
experimental.setup: ATCC 13311, 24 h
Where a SMILES comes first, the peptide text is derived from it.
observable: MIC (µg/mL)
// note: answer is a bare numeric in µg/mL

Which MIC is listed for CC[C@H](C)[C@H](NC(=O)[C@H](CCCNC(=N)N)NC(=O)[C@H](CCCCN)NC(=O)[C@H](C)NC(=O)[C@@H](NC(=O)[C@@H](N)CCCCN)[C@@H](C)CC)C(=O)N[C@@H](Cc1c[nH]c2ccccc12)C(=O)N[C@@H](CCCCN)C(=O)N[C@H](C(=O)N[C@@H](CC(C)C)C(=O)N[C@@H](CCCNC(=N)N)C(=O)N[C@@H](CCCNC(=N)N)C(N)=O)[C@@H](C)CC [P7] (H-KIAKRIWKILRR-NH2; N-terminus assumed) ? 7.81

Which MIC is listed for CC[C@H](C)[C@H](NC(=O)[C@H](CCCNC(=N)N)NC(=O)[C@H](CCCCN)NC(=O)[C@H](C)NC(=O)[C@@H](NC(=O)[C@@H](N)CCCCN)[C@@H](C)CC)C(=O)N[C@@H](Cc1c[nH]c2ccccc12)C(=O)N[C@@H](CCCCN)C(=O)N[C@H](C(=O)N[C@@H](CC(C)C)C(=O)N[C@@H](CCCNC(=N)N)C(=O)N[C@@H](CCCNC(=N)N)C(=O)N[C@@H](CCCNC(=N)N)C(=O)N[C@@H](CC(C)C)C(N)=O)[C@@H](C)CC [PA-14] (H-KIAKRIWKILRRRL-NH2; N-terminus assumed) ? 1.95

Which MIC is listed for CC[C@H](C)[C@H](NC(=O)[C@H](CCCNC(=N)N)NC(=O)[C@H](CCCCN)NC(=O)[C@H](C)NC(=O)[C@@H](NC(=O)[C@@H](N)CCCCN)[C@@H](C)CC)C(=O)N[C@@H](Cc1c[nH]c2ccccc12)C(=O)N[C@@H](CCCCN)C(=O)N[C@H](C(=O)N[C@@H](CC(C)C)C(=O)N[C@@H](CCCNC(=N)N)C(=O)N[C@@H](CCCNC(=N)N)C(=O)N[C@@H](CCCNC(=N)N)C(N)=O)[C@@H](C)CC [PA-13] (H-KIAKRIWKILRRR-NH2; N-terminus assumed) ? 1.95

----------
Tested on: Enterococcus faecalis ATCC 29212
experimental.setup: ATCC 29212, 24 h
Where a SMILES comes first, the peptide text is derived from it.
observable: MIC

Which MIC is listed for CC[C@H](C)[C@H](NC(=O)[C@H](CC(=O)O)NC(=O)[C@H](Cc1ccccc1)NC(=O)[C@H](CC(C)C)NC(=O)CN)C(=O)N[C@H](C(=O)N[C@@H](CCCCN)C(=O)N[C@@H](CCCCN)C(=O)N[C@H](C(=O)N[C@@H](C)C(=O)NCC(N)=O)C(C)C)C(C)C [A0] (H-GLFDIVKKVAG-NH2; N-terminus assumed) ? >250 µg/mL

Which MIC is listed for CC[C@H](C)[C@H](NC(=O)[C@H](CCCNC(=N)N)NC(=O)[C@H](CCCCN)NC(=O)[C@H](C)NC(=O)[C@@H](NC(=O)[C@@H](N)CCCCN)[C@@H](C)CC)C(=O)N[C@@H](Cc1c[nH]c2ccccc12)C(=O)N[C@@H](CCCCN)C(=O)N[C@H](C(=O)N[C@@H](CC(C)C)C(=O)N[C@@H](CCCNC(=N)N)C(=O)N[C@@H](CCCNC(=N)N)C(N)=O)[C@@H](C)CC [P7] (H-KIAKRIWKILRR-NH2; N-terminus assumed) ? >250 µg/mL

Which MIC is listed for CC(C)C[C@H](NC(=O)[C@@H](N)CCCNC(=N)N)C(=O)N[C@@H](Cc1ccccc1)C(=O)N[C@@H](CCCNC(=N)N)C(=O)N[C@@H](CCCNC(=N)N)C(=O)N[C@H](C(=O)N[C@@H](CCCCN)C(=O)N[C@@H](CCCCN)C(=O)N[C@H](C(=O)N[C@@H](C)C(=O)NCC(N)=O)C(C)C)C(C)C [A3] (H-RLFRRVKKVAG-NH2; N-terminus assumed) ? >250 µg/mL

Reference source for all entries: paper PMC7272617
